- Assay System: T1, canine OX40L, full length membrane form, expressed on HEK293 cells (canine)
- T1 chain: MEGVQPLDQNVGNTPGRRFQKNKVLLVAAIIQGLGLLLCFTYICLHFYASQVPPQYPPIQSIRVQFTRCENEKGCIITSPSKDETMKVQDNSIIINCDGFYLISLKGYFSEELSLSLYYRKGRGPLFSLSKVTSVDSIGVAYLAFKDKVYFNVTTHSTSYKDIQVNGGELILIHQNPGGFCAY
- Experiment Notes: cell-based or functional assay
# % Signal Inhibition Average per entry
All answers are understood in %, so give the number only.

| Binder | Unit Tag | % Signal Inhibition Average |
| --- | --- | --- |
| PMX061 (antibody, V domains shown, also called PMX61) VH: EVQLVESGGDLVKPGGSLRLSCVASGFTFSSFPMSWVRQAPGKGLQWVAYINSGGSSTSYADVVKGRFTISRDNAKNTLYLQMNSLRADDTAVYYCARTFPTVATDNWFYYWGQGTLVTVSS VL: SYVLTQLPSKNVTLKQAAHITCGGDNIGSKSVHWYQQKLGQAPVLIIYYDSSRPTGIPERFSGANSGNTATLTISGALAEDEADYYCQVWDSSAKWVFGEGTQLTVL | % | 56.1 |

If you can, please state the reported % Signal Inhibition Average value of PMX049 (antibody, V domains shown, also called PMX49) VH: EVQLVESGGDLVKPGGSLRLSCVASGFTFNNYEMYWVRQAPGKGLEWVARIYESGSTTFSAEAVTGRFTISRDNAKNMVYLQMNSLRAEDTAVYYCASASSSSWRFDYWGQGTLVTVSS VL: SYVLTQLPSVSVTLGQTARITCGGDSIGRKNVCWFQQRLGQAPELIIYDDRSRPSGIPERFSGANSGNTATLTISGALAEDEADYYCQVWDSSTGVFGGGTHLTVL .
84.7
